# ASSAYED TARGET: furin, P09958;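 note: purified furin at 1:10 enzyme:substrate in 50 mM HEPES pH 7.5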
# Sequence (P09958 whole entry): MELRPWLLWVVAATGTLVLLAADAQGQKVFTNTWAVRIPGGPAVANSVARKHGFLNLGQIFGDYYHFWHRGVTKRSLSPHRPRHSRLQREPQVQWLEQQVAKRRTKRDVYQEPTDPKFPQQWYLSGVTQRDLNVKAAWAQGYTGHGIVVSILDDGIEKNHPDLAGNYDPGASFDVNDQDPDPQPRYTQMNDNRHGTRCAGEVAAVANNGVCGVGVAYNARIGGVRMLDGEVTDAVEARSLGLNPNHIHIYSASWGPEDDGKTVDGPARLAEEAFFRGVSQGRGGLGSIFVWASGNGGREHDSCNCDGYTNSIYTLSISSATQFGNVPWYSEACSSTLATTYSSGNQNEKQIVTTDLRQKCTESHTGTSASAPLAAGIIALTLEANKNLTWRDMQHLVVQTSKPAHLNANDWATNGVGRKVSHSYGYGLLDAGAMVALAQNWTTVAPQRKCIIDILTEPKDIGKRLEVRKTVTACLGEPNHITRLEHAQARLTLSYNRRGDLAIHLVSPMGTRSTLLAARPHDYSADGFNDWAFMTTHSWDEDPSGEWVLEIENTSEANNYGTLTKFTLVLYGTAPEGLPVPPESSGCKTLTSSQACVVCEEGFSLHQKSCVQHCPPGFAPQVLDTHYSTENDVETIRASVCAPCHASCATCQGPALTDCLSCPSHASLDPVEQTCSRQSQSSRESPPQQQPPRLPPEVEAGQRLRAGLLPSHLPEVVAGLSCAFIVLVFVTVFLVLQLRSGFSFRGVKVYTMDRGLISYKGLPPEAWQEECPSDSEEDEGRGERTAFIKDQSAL
# PROTOCOL DETAILS: furin cleavage Z-score vs untreated control; higher = more cleavage, active = 3.5 or more, inactive = 1 or less, 8 variable residues between constant flanks
# CONDITION SET: 30 min
Some of the results follow. No count for the full screen is at hand.
Reported furin cleavage Z-score by item:
MEASURE NAME: furin cleavage Z-score

{"columns": ["SEQ STRING", "DATA VALUE"],
 "data": [
  ["CADLELITSCAGNASASA [HC1550]", 0.498],
  ["CARKPRDLELAGNASASA [FS-2038]", 10.9],
  ["CARKPRDYTIAGNASASA [FS-2695]", 3.93],
  ["CAIPDRLRKCAGNASASA [FS-1014]", -0.995],
  ["CAEVVTSCWVAGNASASA [HC2220]", -0.78],
  ["CASQLRYRRCAGNASASA [FS-503]", 5.84],
  ["CASVLIARDQAGNASASA [HC1586]", -0.441]
]}
